# Ki measurements, system: histamine 3 receptor (H3R) (Homo sapiens, UniProt Q9Y5N1)
# Sequence (Q9Y5N1 whole entry): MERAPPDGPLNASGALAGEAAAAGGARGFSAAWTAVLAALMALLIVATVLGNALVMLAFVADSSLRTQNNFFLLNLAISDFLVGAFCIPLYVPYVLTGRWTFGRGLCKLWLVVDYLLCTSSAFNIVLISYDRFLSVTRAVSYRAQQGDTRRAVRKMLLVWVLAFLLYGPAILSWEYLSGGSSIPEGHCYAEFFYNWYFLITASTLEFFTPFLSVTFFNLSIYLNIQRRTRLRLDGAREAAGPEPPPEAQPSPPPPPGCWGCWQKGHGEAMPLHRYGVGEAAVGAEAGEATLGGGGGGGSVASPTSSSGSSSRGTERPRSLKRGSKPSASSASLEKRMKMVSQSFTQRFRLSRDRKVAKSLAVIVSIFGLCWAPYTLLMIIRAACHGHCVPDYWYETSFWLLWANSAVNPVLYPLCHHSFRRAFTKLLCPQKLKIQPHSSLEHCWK
Answers are plain numbers, in nM.

chemical.smiles: C[C@@H]1CCCN1CCCOc1ccc2c(c1)cc1n2CCNC1=O
reading: 6.5

Please turn your attention to the following entry.
Input CC(C)N1CCC(Oc2ccc3c(c2)cc2n3CCCN(CC3CC3)C2=O)CC1 . Output Ki: 17.1
